# TARGET OF ASSAY: T1, EBV gp350 expressed on the surface of stably transfected CHO cells (Epstein-Barr virus, UniProt P03200 1-907)
# T1 construct: also called native gp350; gp350 expressing CHO cells
# T1 sequence: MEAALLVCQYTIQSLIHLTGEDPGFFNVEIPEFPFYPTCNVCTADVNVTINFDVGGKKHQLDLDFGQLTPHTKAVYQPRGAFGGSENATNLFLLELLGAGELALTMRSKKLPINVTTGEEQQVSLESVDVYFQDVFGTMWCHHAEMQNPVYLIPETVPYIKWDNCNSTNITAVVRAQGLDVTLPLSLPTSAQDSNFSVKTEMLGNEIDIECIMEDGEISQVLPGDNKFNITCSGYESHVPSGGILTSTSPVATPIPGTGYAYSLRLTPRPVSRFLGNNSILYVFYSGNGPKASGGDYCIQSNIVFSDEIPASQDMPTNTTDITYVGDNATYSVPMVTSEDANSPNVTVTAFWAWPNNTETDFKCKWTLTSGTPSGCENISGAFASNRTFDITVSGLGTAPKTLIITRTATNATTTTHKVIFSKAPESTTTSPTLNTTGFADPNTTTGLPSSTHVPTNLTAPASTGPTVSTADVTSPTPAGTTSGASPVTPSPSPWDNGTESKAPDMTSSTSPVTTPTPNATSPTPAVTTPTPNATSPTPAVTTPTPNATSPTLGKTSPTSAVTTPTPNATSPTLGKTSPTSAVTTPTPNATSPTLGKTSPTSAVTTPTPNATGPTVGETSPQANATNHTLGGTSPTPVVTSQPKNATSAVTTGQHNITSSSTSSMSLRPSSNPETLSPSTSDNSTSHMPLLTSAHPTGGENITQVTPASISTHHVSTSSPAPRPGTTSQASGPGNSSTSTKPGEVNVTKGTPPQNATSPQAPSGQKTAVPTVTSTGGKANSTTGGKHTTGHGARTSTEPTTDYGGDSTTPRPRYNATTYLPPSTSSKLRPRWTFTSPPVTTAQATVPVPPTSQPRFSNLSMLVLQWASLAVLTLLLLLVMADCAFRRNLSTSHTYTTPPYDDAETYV
# MEASUREMENT DESCRIPTION: cross-competition on gp350-CHO cells (flow), unlabeled 500 µg/ml; competitor: biotinylated HB20
Would you kindly list % inhibition of biotinylated nAbs for each of these binders?
# answer = value followed by unit

HB17 (antibody, V domains shown) VH: AELVIPGASVKVSCKASGYTFTSYWIHWVKQWPGQGLEWIGEINPNNGHTNYNEKFKSKATLTVDKSSSTAYMQLSSLTSEDSAVYYCARNLFYYSRPDYWGQGTSVTVSS VL: SSLSASLGDRVTISCRASQDIGNYLNWYQQKPDGTIKLLIYYTSRLHSGVPSRFSGSGSGTDYSLTISNLEEEDIATYFCQQGNTLPPTFGGGTKLEIKR	17%
HB5 (antibody, V domains shown, also called mHB5) VH: AELVRPGASVKISCKAFGYTFTNHNINWVKQRPGQGLDWIGYINPYNDYTSYNQKFKGKATLTVDKSSNTAYMELSSLTSEDSAVYYCARSEGWLRRGAWFAYWGQGTLVTVSA VL: AILSVSPGERVSFSCRASQSIGTSIHWYQQRTNDSPRLLIKYASESISGIPPRFSGSGSGTDFTLSINSVESEDIADYHCQQSNSWPMLTFGAGTKLELKR	73%

Moving on to another binder below.
IN: Write down % inhibition of biotinylated nAbs measured for item HB1 (antibody, V domains shown) VH: PGLVAPSQSLSITCTVSGFLLTTYGVHWVRQPPGKGLEWLGVIWAGGSTNYNSALMSRLSINKDISKSQVFLKMNSLQTDDTAMYYCTRDRGYGYLYAMDYWGQGTSVTVSS VL: KFMSTSVGDRVSVTCKASQNVGTNVAWYQQKPGQSPKALIYSTSSRYTGVPDRFAGSGSGTDYTLTISNVQSEDLAEYFCQQYNTYPYTFGGGTRLDIKR
OUT: 61%
